From: PubChem BioAssay (NCATS)

assayed.target: Cytochrome P450 2C9 (Homo sapiens) (UniProt P11712)
Sequence (P11712 whole entry, looked up): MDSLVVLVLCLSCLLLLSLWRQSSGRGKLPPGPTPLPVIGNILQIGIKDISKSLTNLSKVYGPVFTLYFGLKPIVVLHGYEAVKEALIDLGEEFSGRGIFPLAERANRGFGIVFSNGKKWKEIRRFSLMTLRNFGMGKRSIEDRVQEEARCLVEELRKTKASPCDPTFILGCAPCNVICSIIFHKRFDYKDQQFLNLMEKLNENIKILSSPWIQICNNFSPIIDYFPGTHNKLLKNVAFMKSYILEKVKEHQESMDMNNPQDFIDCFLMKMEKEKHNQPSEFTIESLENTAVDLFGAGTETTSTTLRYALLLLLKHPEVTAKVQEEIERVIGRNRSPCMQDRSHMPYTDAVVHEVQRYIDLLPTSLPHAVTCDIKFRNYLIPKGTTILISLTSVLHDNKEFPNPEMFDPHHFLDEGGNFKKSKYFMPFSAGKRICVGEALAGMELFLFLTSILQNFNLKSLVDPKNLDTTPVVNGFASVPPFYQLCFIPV
assay.info: Cytochrome P450 family 2 subfamily C member 9 (CYP2C9) small molecule antagonists: luciferase biochemical (cell-free) qHTS assay (AID 1645842); also: nearly all actives have a fitted effect of over 55% in size
experimental.setup: P450-Glo CYP2C9 enzyme assay, luciferin luminescence; series mostly up to 57.4 µM
Source text: National Center for Advancing Translational Sciences [NCATS] Assay Overview: Cytochrome P450 (CYP) enzymes are membrane-bound hemeproteins that play a key role in metabolism of drugs and xenobiotics. Assaying the effect of chemicals on CYP isozymes is useful to minimize the adverse drug reactions and toxicities in drug development process. […] The luciferin products formed are detected with a luciferin detection reagent, and the amount of light produced is proportional to CYP activity. […]
Results filed as inconclusive are left out. Active and inactive are the calls of the source. Calls follow the shape of the dose curve; as a rule, active = well fitted inhibition curve with a large enough effect in the repeat runs; inconclusive = weak or mixed curves; inactive = no such curve, though single readings can be large or run the other way.
Classes used: label 1 for active, label 0 for inactive

CCOc1ccccc1NC(=O)CSc1nc2ccccc2c2nc(CCn3cncc3C)nn12 ... label 1
Oc1c(C(c2ccccc2)N2CCN(c3cccc(Cl)c3)CC2)sc2nc(-c3ccco3)nn12 (stereo not given) ... label 1
CC1=C(C(=O)Nc2ccc(CN)cc2)C(c2ccccc2Cl)N=C(Nc2nc3ccccc3o2)N1 (stereo not given) ... label 1
CN1C(=O)c2ccccc2Sc2ccc(NC(=O)Cc3ccc(Cl)cc3)cc21 ... label 1
Cc1cc(OCCCSc2nc(-c3ccc(C(C)(C)C)cc3)nc3cc(=O)[nH]n23)ccc1Cl ... label 1
CCOc1ccc(CCNC(=O)CCCn2nc(C)c3sc4ccccc4c3c2=O)cc1OCC ... label 1
COc1ccc(-c2cn3cccnc3n2)cc1NC(=O)COc1ccccc1 ... label 1
COC(=O)c1cc(S(C)(=O)=O)ccc1OC ... label 0
CCCNC(=O)C1CCC(Cn2c(=O)c3sccc3n(CC(=O)NCc3ccccc3)c2=O)CC1 (stereo not given) ... label 1
Nc1nc(N)c(S(=O)(=O)c2ccccc2)c(Nc2ccc(Br)cc2)n1 ... label 1
COc1cc(C(=O)NC(c2ccccc2Cl)c2cc(Cl)c3cccnc3c2O)cc(OC)c1OC (stereo not given) ... label 1
COc1ccc(CNC(=O)C(=O)Nc2c3c(nn2-c2ccccc2)CSC3)cc1 ... label 1
CCN(CC)S(=O)(=O)c1ccc2c(c1)nc(CN(C)C(=O)Nc1cccc(Cl)c1)n2C ... label 1
CCc1cccc(CC)c1-n1c(CC(C)C)c(C(=O)N2CCNCC2)cc(-c2nc(-c3ccc(Cl)cc3)cs2)c1=O ... label 1
Cc1ccc(-n2c(SCc3ccccc3F)nc3[nH]ncc3c2=O)cc1C ... label 1
CN(C)[S+](=O)([O-])c1ccc([S+](=O)([O-])N(Cc2ccccc2)Cc2ccccn2)cc1 ... label 1
CC1=C(C(=O)Nc2ccccc2C)C(c2cccnc2)n2nc(SCc3ccccc3)nc2N1 (stereo not given) ... label 1
Cc1ccc2nc(-c3ccccn3)c(Nc3ccccc3C)n2c1 ... label 1
CCOC(=O)c1ccc(NC(=O)CCn2c(=O)c3cccn3c3cccnc32)cc1 ... label 1
Cc1ccc(CNC(=O)C(C)n2nc(C)c3sc4ccccc4c3c2=O)cc1 (stereo not given) ... label 1

* * *

assayed.target: Rap guanine nucleotide exchange factor 4 (Homo sapiens) (UniProt Q8WZA2)
Sequence (Q8WZA2 whole entry, looked up): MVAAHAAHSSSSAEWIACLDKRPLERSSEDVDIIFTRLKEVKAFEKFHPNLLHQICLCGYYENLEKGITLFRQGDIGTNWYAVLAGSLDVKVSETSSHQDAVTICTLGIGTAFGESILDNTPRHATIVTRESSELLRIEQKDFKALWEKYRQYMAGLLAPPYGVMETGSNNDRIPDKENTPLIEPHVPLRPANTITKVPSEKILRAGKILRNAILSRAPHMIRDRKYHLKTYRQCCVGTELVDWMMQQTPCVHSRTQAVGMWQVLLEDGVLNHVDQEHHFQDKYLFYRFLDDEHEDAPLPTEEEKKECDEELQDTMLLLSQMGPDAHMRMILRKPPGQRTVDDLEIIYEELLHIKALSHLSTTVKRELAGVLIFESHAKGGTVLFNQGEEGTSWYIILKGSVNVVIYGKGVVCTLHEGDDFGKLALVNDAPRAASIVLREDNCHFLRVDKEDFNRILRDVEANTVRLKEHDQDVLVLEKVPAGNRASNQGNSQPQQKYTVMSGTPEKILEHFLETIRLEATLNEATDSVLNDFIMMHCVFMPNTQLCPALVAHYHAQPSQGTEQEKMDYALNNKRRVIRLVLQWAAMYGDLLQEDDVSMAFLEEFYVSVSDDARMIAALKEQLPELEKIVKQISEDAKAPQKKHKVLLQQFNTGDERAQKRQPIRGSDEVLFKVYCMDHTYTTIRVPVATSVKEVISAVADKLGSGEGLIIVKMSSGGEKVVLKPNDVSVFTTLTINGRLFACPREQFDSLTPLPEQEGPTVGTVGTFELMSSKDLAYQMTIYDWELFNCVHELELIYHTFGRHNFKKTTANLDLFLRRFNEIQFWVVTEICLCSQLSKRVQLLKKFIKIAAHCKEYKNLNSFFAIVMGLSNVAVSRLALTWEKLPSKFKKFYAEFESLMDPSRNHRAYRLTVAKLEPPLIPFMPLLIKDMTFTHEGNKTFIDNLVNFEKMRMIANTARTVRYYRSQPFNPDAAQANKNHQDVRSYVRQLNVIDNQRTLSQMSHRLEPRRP
assay.info: Confirmatory qHTS for antagonist of cAMP-regulated guanine nucleotide exchange factor 4 (EPAC2) (AID 1645885); also: nearly all actives have a fitted effect of over 25% in size
experimental.setup: EPAC2 Rap1B-BODIPY-GDP exchange fluorescence, biochemical; series mostly up to 12.7 µM
Results filed as inconclusive are left out. The source made the active and inactive calls. The call rests on the fitted dose curve; in most records, active means well fitted inhibition curve with a large enough effect; inconclusive means small, poorly fitted or top-dose-only effect; inactive means no such curve, though single readings can be large or run the other way.
Classes used: t = active, f = inactive

CN(C)CC/C=C1/c2ccccc2Sc2c(O)cc(Cl)cc21 ... f
CC(OC(=O)Cc1c[nH]c2ccccc12)C(=O)Nc1ccccc1F (centres undefined) ... f
Oc1ccc(C2=Nn3c(nnc3-c3ccco3)SC2)cc1O ... f
O=c1oc2cc(O)ccc2cc1-c1nc2ccccc2o1 ... t
Nc1ccn(C2C=CC(CO)O2)c(=O)n1 (centres undefined) ... f
CCOc1cc(/C=N/NC(=O)c2ccc3c(c2)OCCO3)cc(Br)c1O ... f
COc1ccc(N/C=C2\CCc3ccccc3C2=O)cc1 ... f
CC(C)N(Cc1cn(C)nc1-c1cccc(Cl)c1)Cc1nccn1C ... f
Cc1ccc(S(=O)(=O)/N=C2\SC(CC(=O)Nc3ccc(F)cc3)C(=O)N2c2ccccc2)cc1 (centres undefined) ... f
Clc1ccc(CSc2nnc(-c3ccncc3)s2)cc1 ... f
COc1ccc(CNc2cccnc2)c(OC)c1OC ... f
COc1ccc(/C=C/C(=O)c2ccncc2)c2ccccc12 ... f
N#Cc1c(-c2ccccc2)nc(SCc2cccc(Cl)c2)[nH]c1=O ... t
CCOCCCn1c(=N)c(C(=O)NC(C)c2ccccc2)cc2c(=O)n3cccc(C)c3nc21 (centres undefined) ... f
O=C(NCc1ccccc1)c1ccc2nc(-c3ccco3)c(-c3ccco3)nc2c1 ... f
Cc1ccc(/C=C/C(=O)Nc2ccc(S(=O)(=O)Nc3cc(C)nc(C)n3)cc2)cc1 ... f
C=CCNC(=O)C1CC1(c1cccc(C)c1)c1cccc(C)c1 (centres undefined) ... f
O=C(O)c1cc(N/N=C/c2ccncc2)ccc1Cl ... f
COc1cc(Nc2cc(C)nc3ncnn23)cc(OC)c1 ... f
COc1cc2c(C#N)c(N3CCCC3)nc(N)c2c(N)n1 ... f
CCCCN1C(=O)C(O)(c2c[nH]c3ccccc23)c2cc(Br)ccc21 (centres undefined) ... f
CCc1nnc(NC(=O)c2cc(-c3ccco3)nc3ccccc23)s1 ... f
O=C(NC1CCN(Cc2ccccc2)CC1)c1cn(-c2ccccc2)nc1-c1cccnc1 ... f
Cc1cc2c(c(=O)o1)C(c1ccc([N+](=O)[O-])o1)C(C#N)=C(N)O2 (centres undefined) ... f
Cc1ccc([C@H]2C(C(=O)O)=CC[C@@H](c3ccc(Cl)c(Cl)c3)N2S(=O)(=O)c2ccc(C)cc2)cc1 ... f
COc1ccc(C(=O)N(Cc2ccccc2)c2cccc(C)c2)c(OC)c1OC ... f
CC(C)c1ccc(NC(=O)c2ccc(Cn3nc(N4CCN(c5ccccc5)CC4)ccc3=O)o2)cc1 ... f
C=CCn1c(SCC(=O)Nc2sccc2C(N)=O)nc2sc(CC)cc2c1=O ... f
Cc1ccc(C(C)C)cc1OCC(=O)NC1CCCCCCC1 ... f
CCN(CC)C(=S)Oc1c(Cl)cccc1Cl ... f
O=S1(=O)CCN2C(Cc3ccc(SC(F)F)cc3)=CSC2=N1 ... f
O=C(c1ccco1)N(Cc1cccc([N+](=O)[O-])c1)c1ccc(Br)cc1 ... f
Cc1ccc(Cl)c2c1N[C@@H](c1ccc(C(=O)O)cc1)[C@H]1CC=C[C@@H]21 ... f
COC(=O)c1ccc(OC(=O)c2ccc(OC)cc2)c(OC)c1 ... f
CCOC(=O)c1cc(C(C)(C)C)nc(SC)c1C#N ... f
CC(C)(C)c1ccc(N=C2SCC(=O)N2Cc2cccs2)cc1 ... f
CC(Sc1ccccc1)C(=O)NNC(=O)c1csc(N2CCOCC2)n1 (centres undefined) ... f
Cc1ccc(-c2csc(N=C(N)N)n2)cc1 ... f
O=[N+]([O-])c1cc([N+](=O)[O-])c2oc(-c3ccccc3)c(Br)c2c1O ... t
COCOCCn1cc(CN2CCS(=O)(=O)N(Cc3ccc(-c4ccc(C)cc4)cc3)C(CC(C)C)C2=O)nn1 (centres undefined) ... f
CN(C)CCCN(C(=O)COc1ccc(Cl)cc1)c1nc2cc3c(cc2s1)OCCO3 ... f
Cc1ccc(O)c(N=Cc2cc(Cc3ccccc3)cc([N+](=O)[O-])c2O)c1 ... t
O=C(Nc1cccc(Cl)c1)OC1CCCCc2cccnc21 (centres undefined) ... f
c1ccc(CN(Cc2ccccc2)c2c3c(nc4ncnn24)CCC3)cc1 ... f
